- Assay method text: Dynamic light scattering of N-X-Phe-DAP/siRNA nanoparticles
- Assay type: physicochemical
- Recorded conditions: N-X-Phe-DAP/siRNA nanoparticles; 5 μM derivative, 30 nM siRNA; ± standard deviation
- Description: Each N-X-Phe-DAP derivative (100 μM) was mixed with siRNA (600 nM) in H2O for 30 minutes, followed by dilution of this mixture into DMEM cell culture media to final concentrations of 5 μM N-X-Phe-DAP derivative and 30 nM siRNA. […] Average diameter (nm), determined by dynamic light scattering (DLS) and TEM imaging, is reported as the average of […] with the error reported as the standard deviation of the mean. […] (B) Diameter (nm) determined by TEM (n=9, ***p≤0.001 ****p≤0.0001). […]
Recorded metric: Diameter (nm), DLS

# Chemical string, Diameter (nm), DLS
data = [
    ("NCCCNC(=O)[C@H](Cc1ccccc1)NC(=O)C1CCCCC1", 125),
    ("NCCCNC(=O)[C@H](Cc1ccccc1)NC(=O)CC1c2ccccc2-c2ccccc21", 139),
    ("NCCCNC(=O)[C@H](Cc1ccccc1)NC(=O)CCCc1ccc2ccc3cccc4ccc1c2c34", 105),
    ("NCCCNC(=O)[C@H](Cc1ccccc1)NC(=O)Cc1cccc2ccccc12", 221),
    ("NCCCNC(=O)[C@H](Cc1c(F)c(F)c(F)c(F)c1F)NC(=O)OCC1c2ccccc2-c2ccccc21", 202),
]

(A) NCCCNC(=O)[C@H](Cc1cccc(F)c1)NC(=O)OCC1c2ccccc2-c2ccccc21
(B) NCCCNC(=O)[C@H](Cc1ccccc1)NC(=O)OCc1ccccc1
(C) CCCCCCC(=O)N[C@@H](Cc1ccccc1)C(=O)NCCCN
(D) NCCCNC(=O)[C@H](Cc1ccccc1)NC(=O)OCC1c2ccccc2-c2ccccc21
(E) NCCCNC(=O)[C@H](Cc1ccccc1)NC(=O)Cc1ccc2ccccc2c1
Please rank these compounds by Diameter (nm), DLS in descending order. Response field: labels, in requested order.
E, A, D, B, C

###

- System tested: FITC-siRNA
- Assay method text: Slot blot filtration binding affinity assay
- Recorded conditions: binding to siRNA (FITC-siRNA); average of three measurements ± standard deviation
pKd: −log10 of the molar value.
Recorded metric: pKd

Past entries and their recorded results:
# Chemical string, pKd
rows = [
    ("NCCCNC(=O)[C@H](Cc1c(F)c(F)c(F)c(F)c1F)NC(=O)OCC1c2ccccc2-c2ccccc21", 3.66),
    ("CCCCCCC(=O)N[C@@H](Cc1ccccc1)C(=O)NCCCN", 3.74),
    ("NCCCNC(=O)[C@H](Cc1cccc(F)c1)NC(=O)OCC1c2ccccc2-c2ccccc21", 3.88),
    ("NCCCNC(=O)[C@H](Cc1ccccc1)NC(=O)OCc1ccccc1", 4.01),
    ("NCCCNC(=O)[C@H](Cc1ccccc1)NC(=O)CCCc1ccc2ccc3cccc4ccc1c2c34", 4.49),
    ("NCCCNC(=O)[C@H](Cc1ccccc1)NC(=O)C1CCCCC1", 3.75),
    ("NCCCNC(=O)[C@H](Cc1ccccc1)NC(=O)Cc1ccc2ccccc2c1", 3.73),
    ("NCCCNC(=O)[C@H](Cc1ccccc1)NC(=O)CC1c2ccccc2-c2ccccc21", 3.51),
]

(1) NCCCNC(=O)[C@H](Cc1ccccc1)NC(=O)Cc1cccc2ccccc12
(2) NCCCNC(=O)[C@H](Cc1ccccc1)NC(=O)OCC1c2ccccc2-c2ccccc21
Field: lower recorded pKd (choose 1 or 2 ) // caller expects the label of the chosen entry
1
